format: physicochemical; settings: dynamic light scattering
METRIC: solubility kinetic

Task: So what's the measured solubility kinetic for this one? Cc1ccc(C)n1[C@@H](Cc1ccc(-c2ccc(C(=O)O)o2)cc1)C(=O)O [Compound 2]
Output: > 100 µM

Numbers sourced from paper PMC6311382.
